Origin of measurements: paper PMC2823940

targetOrSystem: HpAgD (Helicobacter pylori, UniProt O24890)
assayProtocol: Determination of IC50 values against HpAgD
Type: biochemical
condition: read-out: IC50 HpAgD; 15 min pre-incubation, 0.5 mM Agmatine
pIC50: −log10 of the molar value.
I'd be grateful if you could share measured pIC50 for these entries.

### Prompt Give recorded pIC50 with HpAgD (Helicobacter pylori, UniProt O24890) for the following compound: NC(=O)[C@H](CCCN=C(N)CF)NC(=O)c1ccccc1 [F-amidine]
### Response < 3.30

### Prompt Then NC(=O)[C@H](CCCN=C(N)CCl)NC(=O)c1ccccc1 [Cl-amidine] ?
### Response < 3.30

====

targetOrSystem: HpAgD (Helicobacter pylori)
assayProtocol: Metal inhibition of HpAgD
Assay type: biochemical
condition: 15 min pre-incubation with metal ion, 5.0 mM agmatine
I'd be grateful if you could share measured IC50 for these entries.
Give just the numeric value; µM need not be written.

### Prompt Record request: IC50 value, item [Co+2] [Co^2+]
### Response 13

### Prompt Then [Zn+2] [Zn^2+] ?
### Response 30

### Prompt Then [Ni+2] [Ni^2+] ?
### Response 100

====

Notes on pKi obtained with HpAgD (Helicobacter pylori).
Scale: negative log10 of molar concentration, which is what pKi denotes.

### Prompt Record request: pKi value, item N=C(CF)NCCCCN [ABFA, N-(4-aminobutyl)-2-fluoro-ethanimidamide]
### Response 3.28

### Prompt Then N=C(CCl)NCCCCN [ABCA, N-(4-aminobutyl)-2-chloro-ethanimidamide] ?
### Response 2.92
